# protocol-notes: Oral bioavailability in Sprague-Dawley rat at 3 mg/kg after 0.25 to 24 hrs by UPLC/MS/MS method
# Format: ADME, organism-based
# experimental-conditions: in vivo
reported-endpoint: bioavailability

I would be grateful if you could share the reported bioavailability for COC(=O)N[C@H](C(=O)N[C@@H](Cc1ccccc1)[C@@H](O)CN(Cc1ccc(-c2ccccn2)cc1)NC(=O)[C@@H](NC(=O)OC)C(C)(C)C)C(C)(C)C .
20%

* * *

# protocol-notes: Trough concentration in Sprague-Dawley rat at 3 mg/kg, po at 24 hrs by UPLC/MS/MS method
# Type: ADME, organism-based
# experimental-conditions: in vivo, read-out: Cmin
reported-endpoint: concentration at 24 h (nM)
Report only the number, with the unit nM understood.

Please give the measured concentration at 24 h for this molecule: COC(=O)N[C@H](C(=O)N[C@@H](Cc1ccccc1)[C@@H](O)CN(Cc1ccc(-c2ccccn2)cc1)NC(=O)[C@@H](NC(=O)OC)C(C)(C)C)C(C)(C)C
0.25
